test target: UniProt:Q14164
Sequence (Q14164 whole entry): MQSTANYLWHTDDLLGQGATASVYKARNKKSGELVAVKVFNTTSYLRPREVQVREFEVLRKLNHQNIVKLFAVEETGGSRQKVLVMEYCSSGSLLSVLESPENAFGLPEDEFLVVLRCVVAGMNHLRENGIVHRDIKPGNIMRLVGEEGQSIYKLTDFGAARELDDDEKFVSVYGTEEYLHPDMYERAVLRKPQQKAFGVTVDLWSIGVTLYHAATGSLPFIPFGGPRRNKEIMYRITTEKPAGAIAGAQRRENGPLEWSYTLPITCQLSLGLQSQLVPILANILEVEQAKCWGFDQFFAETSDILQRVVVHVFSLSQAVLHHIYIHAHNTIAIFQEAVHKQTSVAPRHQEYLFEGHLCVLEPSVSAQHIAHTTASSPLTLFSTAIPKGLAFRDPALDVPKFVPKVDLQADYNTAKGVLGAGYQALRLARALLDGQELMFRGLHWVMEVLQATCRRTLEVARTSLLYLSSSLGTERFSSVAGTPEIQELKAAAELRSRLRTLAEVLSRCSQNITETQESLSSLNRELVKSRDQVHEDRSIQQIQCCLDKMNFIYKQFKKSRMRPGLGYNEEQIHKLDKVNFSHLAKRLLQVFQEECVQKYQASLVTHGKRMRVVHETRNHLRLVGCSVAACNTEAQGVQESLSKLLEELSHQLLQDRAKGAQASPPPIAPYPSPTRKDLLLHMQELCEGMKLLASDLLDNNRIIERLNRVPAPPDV
assay: IKKε TR-FRET enzymatic assay
Type: biochemical
particulars: read-out: IKKe IC50
pIC50: −log10 of the molar value.
measure: pIC50

compound="CN1CCC(c2ccc(Nc3ncnc(-c4ccc(O[C@H]5CCOC[C@H]5F)c(C#N)c4)n3)cc2)CC1 [Example 300]" measurement=8.52
compound="N#Cc1cc(-c2ncnc(Nc3ccc(N4CCNCC4)c(F)c3)n2)ccc1O[C@H]1CCOC[C@H]1F [Example 298]" measurement=9.00
compound="N#Cc1cc(-c2ncnc(Nc3ccc(N4CCN(C5COC5)CC4)cc3)n2)ccc1O[C@@H]1CN(C(=O)CO)C[C@H]1F [Example 193]" measurement=7.32
compound="CC(C)NC(=O)c1ccc(Nc2ncnc(-c3ccc(OC4CCOCC4)c(C#N)c3)n2)cc1 [Example 46]" measurement=8.05
compound="N#CCC(=O)N1CC[C@H](Oc2c(F)cc(-c3ncnc(Nc4ccc(N5CCN(C6COC6)CC5)cc4)n3)cc2C#N)[C@H](F)C1 [Example 330]" measurement=8.22
compound="CN1CC[C@H](Oc2ccc(Nc3ncnc(-c4ccc(O[C@H]5CCN(C(=O)[C@@H](O)CO)C[C@H]5F)c(C#N)c4)n3)cc2)[C@H](F)C1 [Example 398]" measurement=9.00
compound="C[C@H](O)C(=O)N1CC[C@H](Oc2ccc(-c3ncnc(Nc4ccc(N5CCN(C6COC6)CC5)nc4)n3)cc2C#N)[C@H](F)C1 [Example 379]" measurement=8.52
compound="C[C@H](O)C(=O)N1CC[C@H](Oc2ccc(-c3ncnc(Nc4ccc(N5C[C@@H](C)N(C6COC6)C[C@@H]5C)cc4)n3)cc2C#N)[C@H](F)C1 [Example 265]" measurement=8.40
compound="N#Cc1cc(-c2ncnc(Nc3ccc(Cn4ccnc4)cc3)n2)ccc1OC1CCOCC1 [Example 106]" measurement=8.40
compound="CC(=O)N1CC[C@H](Oc2ccc(-c3ncnc(Nc4ccc(N5CCN(C6COC6)CC5)cc4)n3)cc2C#N)[C@H](F)C1 [Example 289]" measurement=8.30
compound="N#Cc1cc(-c2ncnc(Nc3ccc(N4CCN(C5COC5)CC4)cc3)n2)ccc1O[C@H]1CCOC[C@H]1F [Example 297]" measurement=8.40
compound="CC1(C)CN(C(=O)CO)C[C@H](F)[C@@H]1Oc1ccc(-c2ncnc(Nc3ccc(N4CCN(C5COC5)CC4)cc3)n2)cc1C#N (single isomer, unassigned) [Example 178]" measurement=9.00
compound="COc1cc(Nc2ncnc(-c3ccc(OC4CCOCC4)c(C#N)c3)n2)ccc1C(=O)N1CCN(C2COC2)CC1 [Example 71]" measurement=8.00
compound="COc1cccc(Nc2ncnc(-c3ccc(OC4CCOCC4)c(C#N)c3)n2)c1 [Example 78]" measurement=7.77
compound="N#Cc1cc(-c2ncnc(Nc3ccc(N4CCN(C5COC5)CC4)cc3)n2)ccc1O[C@H]1CCN(C(=O)c2cc[nH]c(=O)c2)C[C@H]1F [Example 137]" measurement=7.49
compound="N#Cc1cc(-c2ncnc(Nc3ccc(N4CCN(C5COC5)CC4)cc3)n2)ccc1N1CCC2(CCOC2)CC1 [Example 213]" measurement=7.85
compound="N#Cc1cc(-c2ncnc(Nc3ccc(N4CCN(C5COC5)CC4)cc3)n2)ccc1N1CCC2(CCO2)C1 (stereo not drawn) [Example 207]" measurement=6.89
compound="CC(=O)N1CCN(c2ccc(Nc3ncnc(-c4ccc(OC5CCOCC5)c(C#N)c4)n3)cc2)CC1 [Example 11]" measurement=8.40
compound="C[C@H]1CN(C2COC2)CCN1c1ccc(Nc2ncnc(-c3ccc(O[C@H]4CCN(C(=O)c5cnc[nH]5)C[C@H]4F)c(C#N)c3)n2)cc1 [Example 256]" measurement=9.00
compound="CC(C)(O)c1cc(Nc2ncnc(-c3ccc(O[C@H]4CCN(C(=O)CO)C[C@H]4F)c(C#N)c3)n2)ccn1 [Example 397]" measurement=8.70
compound="C=CC(=O)Nc1ccc(Nc2ncnc(-c3ccc(OC4CCOCC4)c(C#N)c3)n2)cc1 [Example 39]" measurement=7.46
